Molecular target: C-X-C chemokine receptor type 2 (Homo sapiens, UniProt P25025)
Sequence (P25025 whole entry): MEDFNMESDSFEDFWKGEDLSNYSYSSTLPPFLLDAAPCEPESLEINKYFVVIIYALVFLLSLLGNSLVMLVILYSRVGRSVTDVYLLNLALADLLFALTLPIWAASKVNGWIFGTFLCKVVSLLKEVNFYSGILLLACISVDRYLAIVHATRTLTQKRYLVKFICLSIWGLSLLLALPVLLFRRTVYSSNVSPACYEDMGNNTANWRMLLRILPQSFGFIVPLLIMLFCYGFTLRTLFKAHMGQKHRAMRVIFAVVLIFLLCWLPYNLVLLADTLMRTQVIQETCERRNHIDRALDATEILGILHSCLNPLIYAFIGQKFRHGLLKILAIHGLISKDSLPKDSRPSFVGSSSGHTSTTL
Assay: Assay Drug Dev Technol. 2007 February; 5(1); 137-44).
Endpoint Label: IC50 (nM)
Answers are plain numbers, in nM.

# input Answer with the recorded IC50 for the compound listed here: Cc1ccc(C(Nc2c(Nc3cccc(C(=O)N(C)C)c3O)c(=O)c2=O)C2(C)CCOCC2)o1 (stereo unspecified)
# output 157

###

Target: C-X-C chemokine receptor type 1 (Homo sapiens)
Sequence (P25024 whole entry): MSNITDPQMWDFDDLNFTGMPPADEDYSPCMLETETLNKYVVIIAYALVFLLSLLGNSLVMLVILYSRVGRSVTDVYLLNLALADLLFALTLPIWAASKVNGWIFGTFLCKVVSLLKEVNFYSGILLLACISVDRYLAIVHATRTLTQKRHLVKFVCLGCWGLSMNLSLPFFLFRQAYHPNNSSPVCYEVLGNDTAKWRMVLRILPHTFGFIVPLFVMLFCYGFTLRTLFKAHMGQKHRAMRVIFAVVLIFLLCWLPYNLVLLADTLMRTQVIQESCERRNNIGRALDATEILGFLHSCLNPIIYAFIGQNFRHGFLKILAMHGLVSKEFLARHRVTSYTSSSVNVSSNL
Assay: Assay Drug Dev Technol. 2007 February; 5(1); 137-44).
Type: cell-based
Endpoint Label: pIC50
One number for each entry, as −log10 of the molar value.

# input Answer with the recorded pIC50 for the molecule listed here: Cc1ccc(C(Nc2c(Nc3cccc(C(=O)N(C)C)c3O)c(=O)c2=O)C2(C)CCOCC2)o1 (stereo unspecified)
# output 5.47
